- Tested on: BR-Luc mouse HGSOC tumor cells
- experimental details: Cell proliferation assay (CellTiter-blue, 96 h), BR-Luc cells
- Assay type: cell-based
- measurement parameters: Mus musculus, read-out: IC50 anti-proliferative activity BR-Luc, Folic Acid (200 nM), with 200 nM folic acid, mean ± SE
assay endpoint: IC50
Write the figure, then the unit, nothing else.

Check BR-Luc mouse HGSOC tumor cells data and give IC50 for Nc1nc2[nH]c(CCCCc3csc(C(=O)N[C@@H](CCC(=O)O)C(=O)O)c3F)cc2c(=O)[nH]1 [AGF278] .
588 nM

###

- Test system: IGROV1 human EOC cells
- experimental details: Cell proliferation assay, IGROV1 cells
- Type: cell-based
- measurement parameters: Homo sapiens, IGROV-1, no folic acid, mean ± SE, read-out: IC50 anti-proliferative activity IGROV1, No addition
assay endpoint: IC50 (nM)
Return type: number; implicit unit nM.

Consider the compound Nc1nc2[nH]c(CCCCc3csc(C(=O)N[C@@H](CCC(=O)O)C(=O)O)c3F)cc2c(=O)[nH]1 . State its measured IC50.
1.9
